experimental system: acetylcholine receptor
procedure text: SPR, receptor immobilized, peptide 10 uM
assay readout: Binding affinity (RU)
Return type: number; implicit unit RU.

Before answering, review these 3 worked examples.
KTHHR [5mer-1089]: 29
REHVRR [6mer-2-893]: 17
RNKERK [6mer-2-803]: 18

Give its Binding affinity (RU) value. Item: KDSFR [5mer-1061]
24

Which Binding affinity (RU) reading was recorded for the binder KKSLLR [6mer-1-157] ?
123

Any idea what Binding affinity (RU) was measured for RFNKK [5mer-786] ?
29

Given the binder RPTDK [5mer-1096] , what is its reported Binding affinity (RU)?
15

For the binder RCDFR [5mer-776] , what Binding affinity (RU) is on record?
17

Measured values drawn from patent US20250011363A1 for this set.
